PROCEDURE_DETAILS: Conjugation ratio (CR) indicating the number of moles of compound required per 1 mole of antibody (having Molar input ratio (MIR) = 8) was determined
Reported CR values are given for each entry in this list.

# MOLECULE, CR
records = [
    ("COc1ccc(C(Nc2nc(N)nc3c2ncn3[C@@H]2O[C@H](CO)[C@@H](O)C2(F)F)(c2ccc(C)cc2)c2ccc(C(N)=O)cc2)cc1 (stereo partly specified)", 7.49),
    ("Cc1ccc(C(Nc2nc(N)nc3c2ncn3[C@@H]2O[C@H](CO)[C@@H](O)C2(F)F)(c2ccccc2)c2ccc(C(N)=O)cc2)cc1 (stereo partly specified)", 5.2),
    ("COc1ccc(C(Nc2nc(N)nc3c2ncn3[C@@H]2O[C@H](CO)[C@@H](O)C2(F)F)(c2ccc(OC)cc2)c2ccc(C(N)=O)cc2)cc1", 7.44),
    ("COc1ccc(C(Nc2nc(N)nc3c2ncn3[C@@H]2O[C@H](CO)[C@@H](O)C2(F)F)(c2ccc(OC)cc2)c2cccc(C(N)=O)c2)cc1", 6.44),
    ("NC(=O)c1ccc(C(Nc2nc(N)nc3c2ncn3[C@@H]2O[C@H](CO)[C@@H](O)C2(F)F)(c2ccccc2)c2ccccc2)cc1", 4.44),
    ("COc1ccc(C(Nc2nc(N)nc3c2ncn3[C@@H]2O[C@H](CO)[C@@H](O)C2(F)F)(c2ccccc2)c2ccc(C(N)=O)cc2)cc1 (stereo partly specified)", 5.73),
]
